Values compiled from patent EP4420661B1.

Would you kindly list fraction unbound at 4 h, 5 µM for each of these molecules?
- ASSAY NOTES: plasma protein binding, Rapid Equilibrium Dialysis (RED), mouse
- Type: in vitro ADME
- CONDITION SUMMARY: 4h at 37°C, (*) low recovery for (If)
Answers are plain numbers.

INSERT INTO measurements (molecule, measured_result) VALUES
  ('O=C1NC(=O)C(c2ccccc2)(c2ccccc2)N1 [Phenytoin, reference compound]', 0.179);

Now, please, on to the next molecule.
Data request: Give fraction unbound at 4 h, 5 µM for O=C(Cc1ccc2c(c1)OCCO2)Nc1nc(-c2ccc3c(c2)CCC(=O)N3)cs1 [Compound (If)]
Data returned: 0.0046

###

- ASSAY NOTES: metabolic stability, mouse microsomes
- Assay type: in vitro ADME
ENDPOINT: half-life
# output: number + unit

Data request: Give half-life for O=C(Cc1ccc2c(c1)OCCO2)Nc1nc(-c2ccc3c(c2)CCC(=O)N3)cs1 [Compound (If)]
Data returned: 1.82 h

###

- EXPERIMENTAL TARGET: CYP3A4 (Homo sapiens, UniProt P08684)
- Construct: 0.5 mg protein/mL of liver microsomes (HLM Xenotech); tissue Xenotech; host or cells: liver microsomes
- Sequence (P08684 whole entry): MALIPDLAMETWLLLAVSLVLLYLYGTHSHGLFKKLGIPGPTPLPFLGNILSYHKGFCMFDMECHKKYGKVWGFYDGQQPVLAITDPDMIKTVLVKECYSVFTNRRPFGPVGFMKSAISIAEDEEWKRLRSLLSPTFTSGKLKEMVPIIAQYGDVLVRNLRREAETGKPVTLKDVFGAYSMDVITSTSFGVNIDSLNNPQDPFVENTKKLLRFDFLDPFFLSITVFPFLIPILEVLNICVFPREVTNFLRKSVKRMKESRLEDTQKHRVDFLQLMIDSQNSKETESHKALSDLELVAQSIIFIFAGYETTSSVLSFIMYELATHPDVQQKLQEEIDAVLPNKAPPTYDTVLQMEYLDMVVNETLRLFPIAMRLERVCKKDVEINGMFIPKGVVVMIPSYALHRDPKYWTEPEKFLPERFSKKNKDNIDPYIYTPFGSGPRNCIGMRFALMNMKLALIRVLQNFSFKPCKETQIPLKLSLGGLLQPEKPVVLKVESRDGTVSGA
- ASSAY NOTES: CYP inhibition, liver microsomes, substrate cocktail
- Type: in vitro ADME
- CONDITION SUMMARY: CYP3A4 (Testosterone); 25 min
ENDPOINT: IC50

Data request: Give IC50 for O=C(Cc1ccc2c(c1)OCCO2)Nc1nc(-c2ccc3c(c2)CCC(=O)N3)cs1 [Compound (If)]
Data returned: > 10 µM

###

- ASSAY NOTES: metabolic stability, rat microsomes
- Assay type: in vitro ADME
- CONDITION SUMMARY: Rat microsomes
ENDPOINT: microsomal CLint (µL/min/mg)
Numbers only, in µL/min/mg.

Data request: Give microsomal CLint for O=C(Cc1ccc2c(c1)OCCO2)Nc1nc(-c2ccc3c(c2)CCC(=O)N3)cs1 [Compound (If)]
Data returned: 8.89

###

- EXPERIMENTAL TARGET: CYP2C19 (Homo sapiens, UniProt P33261)
- Sequence (P33261 whole entry): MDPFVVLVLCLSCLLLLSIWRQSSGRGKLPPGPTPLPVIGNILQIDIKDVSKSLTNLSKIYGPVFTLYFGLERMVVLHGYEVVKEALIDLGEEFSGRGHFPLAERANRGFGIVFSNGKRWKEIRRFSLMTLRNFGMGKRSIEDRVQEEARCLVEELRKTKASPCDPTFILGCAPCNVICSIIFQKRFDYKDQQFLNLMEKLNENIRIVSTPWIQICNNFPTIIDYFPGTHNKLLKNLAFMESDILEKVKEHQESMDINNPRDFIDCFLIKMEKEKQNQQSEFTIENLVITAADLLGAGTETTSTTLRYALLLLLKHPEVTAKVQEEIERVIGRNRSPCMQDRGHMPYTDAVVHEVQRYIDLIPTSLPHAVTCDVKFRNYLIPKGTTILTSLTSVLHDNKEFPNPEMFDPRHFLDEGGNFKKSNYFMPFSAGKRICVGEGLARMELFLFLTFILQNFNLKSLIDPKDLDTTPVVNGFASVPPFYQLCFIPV
pIC50: −log10 of the molar value.
ENDPOINT: pIC50

Data request: Give pIC50 for `O=C(Cc1ccc2c(c1)OCCO2)Nc1nc(-c2ccc3c(c2)CCC(=O)N3)cs1`
Data returned: < 5.00
